Collected pIC50 values appear next to each entry.
molecular target: RIPK1 Kinase (Homo sapiens); construct: purchased Eurofins (Kinase Profiler service); experiment: biochemical
pIC50: −log10 of the molar value.
endpoint: pIC50

{"columns": ["compound", "test-value"],
 "data": [
  ["C[C@H](NC(=O)c1cn(C)c2ccc(-c3ccn4nc(NC(=O)CN5C[C@H]6C[C@@H]5CO6)nc4c3)cc12)c1ccc(F)cc1", "7.00 to 8.00"],
  ["Cn1cc(C(=O)N2CC(F)CC2c2ccc(F)cc2)c2cc(-c3ccn4nc(NC(=O)C5CC5)nc4c3)ccc21 (stereo not drawn)", "7.00 to 8.00"],
  ["C[C@H](NC(=O)c1cn(C)c2ccc(-c3ccn4nc(NC(=O)CN5CC(F)(F)C5)nc4c3)cc12)c1ccc(F)cc1", "7.00 to 8.00"]
]}

====

Collected pIC50 values appear next to each entry.
biological target: RIPK1 Kinase (Homo sapiens); construct: purchased Eurofins (Kinase Profiler service); assay: biochemical
pIC50: −log10 of the molar value.
endpoint: pIC50

{"columns": ["compound", "endpoint", "test-value"],
 "data": [
  ["C[C@H](NC(=O)c1cn(C)c2ccc(-c3ccn4nc(NC(=O)CN5CCN(C)CC5)nc4c3)cc12)c1ccc(F)cc1", "pIC50", "7.00 to 8.00"],
  ["Cn1cc(C(=O)N[C@H]2CCc3cc(C#N)ccc32)c2cc(-c3ccn4nc(NC(=O)C5CC5)nc4c3)ccc21", "pIC50", "7.00 to 8.00"],
  ["C[C@H](NC(=O)c1cn(C)c2ccc(-c3ccn4nc(NC(=O)CN5CC(C)(C#N)C5)nc4c3)cc12)c1ccc(F)cc1", "pIC50", "7.00 to 8.00"],
  ["CC(=O)Nc1nc2cc(-c3ccc4c(c3)c(C(=O)NC3CCc5cc(F)ccc53)cn4C)ccn2n1 (single isomer, unassigned)", "pIC50", "6.00 to 7.00"],
  ["Cn1cc(C(=O)Nc2nc3cc(-c4ccc5c(c4)c(C(=O)N[C@H]4CCc6ccc(F)cc64)cn5C)ccn3n2)cn1", "pIC50", "6.00 to 7.00"],
  ["C[C@H](NC(=O)c1cn(C)c2ccc(-c3ccn4nc(NC(=O)CN5CCOC(C)(C)C5)nc4c3)cc12)c1ccc(F)cc1", "pIC50", "7.00 to 8.00"]
]}

====

molecular target: MLK2/3 kinase; test: In vitro MLK2/3 kinase assay (ADP-Glo method, ICE Bioscience)

{"columns": ["smiles-code", "tested-system", "IC50"],
 "data": [
  ["C[C@H](NC(=O)c1cn(C)c2ccc(-c3ccn4nc(NC(=O)CN(C)CCO)nc4c3)cc12)c1ccc(F)cc1", "MLK2/3 kinase", "10 to 100 nM"],
  ["C[C@H](NC(=O)c1cn(C)c2ccc(-c3ccn4nc(NC(=O)CN5CCOCC5)nc4c3)cc12)c1ccc(F)cc1", "MLK2/3 kinase", "10 to 100 nM"]
]}

====

Collected IC50 values appear next to each entry.
molecular target: RIPK1 Kinase (Homo sapiens, UniProt Q13546); construct: purchased Eurofins (Kinase Profiler service); experiment: biochemical; settings: compound 0.001-10 µM; read-out: RIPK1(IC50)
Sequence (Q13546 whole entry): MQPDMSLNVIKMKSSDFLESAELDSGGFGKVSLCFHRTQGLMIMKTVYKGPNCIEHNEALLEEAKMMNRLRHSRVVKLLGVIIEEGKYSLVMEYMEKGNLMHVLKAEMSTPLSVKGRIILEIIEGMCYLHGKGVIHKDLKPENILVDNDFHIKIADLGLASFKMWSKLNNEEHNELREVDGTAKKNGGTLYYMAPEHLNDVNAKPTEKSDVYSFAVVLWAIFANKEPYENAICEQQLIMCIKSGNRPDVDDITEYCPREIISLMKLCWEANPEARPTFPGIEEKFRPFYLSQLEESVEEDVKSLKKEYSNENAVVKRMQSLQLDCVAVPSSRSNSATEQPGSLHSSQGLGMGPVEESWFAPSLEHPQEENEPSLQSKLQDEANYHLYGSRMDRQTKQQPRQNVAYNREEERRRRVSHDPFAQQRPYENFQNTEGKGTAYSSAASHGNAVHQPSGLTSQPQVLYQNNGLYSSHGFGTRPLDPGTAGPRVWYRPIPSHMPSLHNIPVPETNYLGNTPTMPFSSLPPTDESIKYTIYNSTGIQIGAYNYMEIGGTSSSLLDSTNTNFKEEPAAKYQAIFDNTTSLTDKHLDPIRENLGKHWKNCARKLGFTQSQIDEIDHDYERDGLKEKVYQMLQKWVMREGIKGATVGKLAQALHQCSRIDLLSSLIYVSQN
endpoint: IC50

{"columns": ["molecule", "test-value"],
 "data": [
  ["CC(=O)Nc1nc2cc(-c3ccc4c(c3)c(C(=O)N[C@H]3CCCc5cc(F)ccc53)cn4C)ccn2n1", "10 to 100 nM"],
  ["CC(c1ccc(F)cc1)n1cnc(-c2cn(C)c3ccc(-c4ccn5nc(NC(=O)C6CC6)nc5c4)cc23)n1 (stereo not drawn)", "1000 to 10000 nM"],
  ["C[C@H](NC(=O)c1cn(C)c2ccc(-c3ccn4nc(NC(=O)CN5C6CC7CC(C6)C(O)C5C7)nc4c3)cc12)c1ccc(F)cc1 (stereo partly drawn)", "10 to 100 nM"]
]}

====

biological target: RIPK1 Kinase (Homo sapiens); construct: purchased Eurofins (Kinase Profiler service); test: biochemical
Collected IC50 values appear next to each entry.
endpoint: IC50

{"columns": ["compound", "test-value"],
 "data": [
  ["C[C@H](NC(=O)c1cn(C)c2ccc(-c3ccn4nc(NC(=O)[C@@H]5CCC(=O)N5)nc4c3)cc12)c1ccc(F)cc1 [Compound 14]", "10 to 100 nM"],
  ["CC(=O)Nc1nc2cc(-c3ccc4c(c3)c(C(=O)N[C@H]3CCc5ccc(F)cc53)cn4C)ccn2n1 [Compound 124]", "10 to 100 nM"],
  ["C[C@H](NC(=O)c1cn(C)c2ccc(-c3ccn4nc(NC(=O)CN5CC(O)CC5=O)nc4c3)cc12)c1ccc(F)cc1 (single isomer, unassigned) [Compound 3]", "10 to 100 nM"],
  ["C[C@H](NC(=O)c1nn(C)c2ccc(-c3ccn4nc(NC(=O)CN5CCOCC5)nc4c3)cc12)c1ccc(F)cc1 [Compound 196]", "10 to 100 nM"],
  ["C[C@@H](c1ccc(F)cc1)N(C)C(=O)c1cn(C)c2ccc(-c3ccn4nc(NC(=O)C5CC5)nc4c3)cc12 [Compound 175]", "10 to 100 nM"],
  ["C[C@H](NC(=O)c1cn(C)c2ccc(-c3ccn4nc(NC(=O)CN5CCOCC5)nc4c3)cc12)c1ccc(F)cc1 [Compound 75]", "1 to 10 nM"],
  ["C[C@H](NC(=O)c1cn(C)c2ccc(-c3ccn4nc(NC(=O)CN5CC6CCC(C5)O6)nc4c3)cc12)c1ccc(F)cc1 [Compound 71]", "10 to 100 nM"],
  ["COCCNCC(=O)Nc1nc2cc(-c3ccc4c(c3)c(C(=O)N[C@@H](C)c3ccc(F)cc3)cn4C)ccn2n1 [Compound 68]", "10 to 100 nM"],
  ["Cn1cc(C(=O)N[C@H](c2ccc(F)cc2)C(F)F)c2cc(-c3ccn4nc(NC(=O)C5CC5)nc4c3)ccc21 [Compound 161]", "1 to 10 nM"],
  ["C[C@H](NC(=O)c1cn(C)c2ccc(-c3ccn4nc(NC(=O)CN5CCC(N6CCOCC6)CC5)nc4c3)cc12)c1ccc(F)cc1 [Compound 38]", "10 to 100 nM"],
  ["C[C@@H]1CN(CC(=O)Nc2nc3cc(-c4ccc5c(c4)c(C(=O)N[C@@H](C)c4ccc(F)cc4)cn5C)ccn3n2)C[C@H](C)O1 [Compound 46]", "10 to 100 nM"],
  ["C[C@H](NC(=O)c1cn(C)c2ccc(-c3ccn4nc(NC(=O)C5CCOC5)nc4c3)cc12)c1ccc(F)cc1 (stereo partly shown) [Compound 106]", "10 to 100 nM"],
  ["C[C@H](NC(=O)c1cn(C)c2ccc(-c3ccn4nc(NC(=O)CN(C)CCO)nc4c3)cc12)c1ccc(F)cc1 [Compound 74]", "10 to 100 nM"]
]}
